- TARGET_ENTITY: Ba/F3 cell EGFR Exon20 ins NPH (Homo sapiens, UniProt P00533, INS773NPH)
- Construct: expressed in transfected cells; host or cells: Ba/F3
- MEASUREMENT_DESCRIPTION: Ba/F3 cell proliferation suppression, EGFR Exon20 ins NPH
- Assay type: cell-based
- RUN_CONDITIONS: GI50 class; Ba/F3 cell line with NPH inserted at Exon20 of EGFR; 72 hours
- Procedure: The following experiment was carried out to evaluate the suppression activity of the compounds according to the present invention against proliferation of Ba/F3 and lung cancer cells which express EGFR mutations. Of the cancer cell lines expressing the EGFR gene, A549 was cultured after adding 10% FBS (HyClone) to DMEM (Invitrogen), and RPMI-1640 (Invitrogen) with 10% FBS was used for the other cancer cells. […] The result was calculated as a cell growth ratio (%) compared to a control. […]
MEASURED_QUANTITY: Ba/F3 (NPH) Activity

C=CC(=O)Nc1cc(Nc2cc(N3OCC[C@@H]3c3cc(F)cc(F)c3)ncn2)c(OC)cc1N1CCC(N2C[C@@H]3C[C@H]2CN3C)CC1 [Example 260]
A (GI50 < 50 nM)
C=CC(=O)Nc1cc(Nc2cc(N3OCC[C@@H]3c3ccc4ccccc4c3)ncn2)c(OC)cc1N(C)CCN(C)C [compound 511]
A (GI50 < 50 nM)
C=CC(=O)Nc1cc(Nc2cc(N3OCC[C@@H]3c3ccc(F)c(Cl)c3F)ncn2)c(OC)cc1N1CCC(N2CCN(C3COC3)CC2)CC1 [Example 202]
A (GI50 < 50 nM)
C=CC(=O)Nc1cc(Nc2cc(N3OCC[C@@H]3Cc3ccccc3)ncn2)c(OC)cc1N1CCC(N2CCOCC2)CC1 [compound 965]
A (GI50 < 50 nM)
